- Tested target: T1, human ICOS-hFc (homodimeric, bivalent) (human, UniProt Q9Y6W8 21-141)
- T1 construct: also called hICOS-Fc; hICOS-hFc; not shown: human IgG1 Fc (IgG1 backbone)
- T1 sequence: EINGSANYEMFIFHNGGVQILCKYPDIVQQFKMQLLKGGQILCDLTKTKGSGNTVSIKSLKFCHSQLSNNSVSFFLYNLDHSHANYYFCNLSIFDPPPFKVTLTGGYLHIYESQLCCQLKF
- Assay info: BLI, bivalent binding to homodimeric ICOS-Fc
Readout type: Kd

Answered cases to consult:
Binder	Reading
37A10 (antibody, V domains shown, Armenian hamster monoclonal tested as IgG; also called hamster anti-ICOS 37A10) VH: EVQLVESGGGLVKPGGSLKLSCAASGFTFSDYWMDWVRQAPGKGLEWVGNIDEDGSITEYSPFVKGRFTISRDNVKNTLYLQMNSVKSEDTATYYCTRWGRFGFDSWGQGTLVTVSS VL: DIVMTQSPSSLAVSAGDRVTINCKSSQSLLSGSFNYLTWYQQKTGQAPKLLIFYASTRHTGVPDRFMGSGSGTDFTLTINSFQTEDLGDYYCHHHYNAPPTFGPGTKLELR	< 0.001 nM
7F12 (antibody, V domains shown, Armenian hamster monoclonal tested as IgG; also called hamster anti-ICOS 7F12) VH: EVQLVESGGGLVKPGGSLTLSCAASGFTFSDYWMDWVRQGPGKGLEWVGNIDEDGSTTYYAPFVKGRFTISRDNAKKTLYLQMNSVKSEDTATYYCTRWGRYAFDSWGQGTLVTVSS VL: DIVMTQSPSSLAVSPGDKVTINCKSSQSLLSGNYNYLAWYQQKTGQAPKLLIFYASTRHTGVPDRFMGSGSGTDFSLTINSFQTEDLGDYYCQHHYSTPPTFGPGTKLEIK	0.0342 nM

Now consider a different binder.
Form field Kd, entry 36E10 (antibody, V domains shown, Armenian hamster monoclonal tested as IgG; also called hamster anti-ICOS 36E10) VH: EVQLVESGGGLVKPGGSLKLSCAASGFTFSDYWMDWVRQAPGKGLEWVGNIDEDGSITEYSPFVKGRFTISRDNVKNILYLQMNSVKSEDTATYYCTRWGRFAFDSWGQGTLVTVSS VL: DIVMTQSPSSLAVSPGDRVTINCKSSQSLLSGSFHYLTWYQQKTGQAPKLLIFYASTRHTGVPDRFMGSGSGTDFTLTINSFQTEDLGDYYCHHHYNAPPTFGPGTKLELR : < 0.001 nM
